study_target: Adenosine receptor A1 (Homo sapiens, UniProt P30542); also: assay procedure not described here
Sequence (P30542 whole entry): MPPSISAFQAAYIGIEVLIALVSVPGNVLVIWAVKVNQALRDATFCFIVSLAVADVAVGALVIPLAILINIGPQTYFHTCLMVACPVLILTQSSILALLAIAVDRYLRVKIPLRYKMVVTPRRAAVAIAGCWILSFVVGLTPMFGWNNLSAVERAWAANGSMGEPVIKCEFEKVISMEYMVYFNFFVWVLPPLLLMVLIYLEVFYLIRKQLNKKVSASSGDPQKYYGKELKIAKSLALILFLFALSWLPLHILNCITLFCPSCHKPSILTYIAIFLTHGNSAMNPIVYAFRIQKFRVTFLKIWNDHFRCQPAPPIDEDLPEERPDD
Task for the reader: assign each of the following compounds its reported AC50.

Some solved cases for reference:
compound | obs_value
O=[N+]([O-])O[C@@H]1CO[C@H]2[C@@H]1OC[C@@H]2O [ISOSORBIDE MONONITRATE] | > 30 µM
O=C(Oc1ccc2c(c1)CCCN2C(=O)C(Cl)Cl)c1ccco1 [QUINFAMIDE] | 29.4 µM
COc1cc2nc(N3CCN(C(=O)c4ccco4)CC3)nc(N)c2cc1OC | > 30 µM
Cc1oc(=O)oc1CN1CCN(c2cc3c(cc2F)c(=O)c(C(=O)O)c2n3C(C)S2)CC1 (stereo unspecified) | > 30 µM

I would be grateful if you could provide AC50 for each of the following entries.
1. CCCCCNC(=N)N/N=C/c1c[nH]c2ccc(OC)cc12
2. CC(=O)OCC1=C(C(=O)O)N2C(=O)[C@@H](NC(=O)[C@H](N)c3ccccc3)[C@H]2SC1

1: > 30 µM; 2: > 30 µM
